Target: dopamine (DA) reuptake sites (Rattus norvegicus)
Construct: Striatal tissue from the brains of male Charles River rats weighing 150-250 g; from tissue; host or cells: rat brain striatum (crude synaptosomes in A1, washed membranes in A4)
Sequence (P23977 whole entry): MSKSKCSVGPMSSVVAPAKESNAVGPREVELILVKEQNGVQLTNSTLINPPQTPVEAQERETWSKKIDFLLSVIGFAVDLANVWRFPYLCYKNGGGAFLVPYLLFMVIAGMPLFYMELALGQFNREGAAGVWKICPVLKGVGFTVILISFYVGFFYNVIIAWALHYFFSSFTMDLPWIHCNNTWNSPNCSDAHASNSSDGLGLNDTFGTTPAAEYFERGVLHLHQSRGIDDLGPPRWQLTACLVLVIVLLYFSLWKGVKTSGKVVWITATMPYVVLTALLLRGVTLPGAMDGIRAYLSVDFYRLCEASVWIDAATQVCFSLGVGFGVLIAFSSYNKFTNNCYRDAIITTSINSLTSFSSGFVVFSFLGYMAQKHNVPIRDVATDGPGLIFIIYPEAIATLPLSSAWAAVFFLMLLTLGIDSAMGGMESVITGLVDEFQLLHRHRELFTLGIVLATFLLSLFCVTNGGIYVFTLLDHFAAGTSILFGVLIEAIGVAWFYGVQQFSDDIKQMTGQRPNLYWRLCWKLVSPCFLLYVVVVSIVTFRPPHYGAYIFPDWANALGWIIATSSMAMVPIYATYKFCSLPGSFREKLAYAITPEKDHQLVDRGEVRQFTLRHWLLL
Assay: displacement of [3H]GBR 12935 from dopamine reuptake sites, striatal membranes
Assay type: binding
Details: 10^-6 M test compound, [3H]GBR 12935 1 nM, one test only, read-out: DA uptake (% displacement of specific binding of tritiated ligand)
Protocol: Striatal tissue from the brains of male Charles River rats weighing 150-250 g was homogenised in ice-cold 0.32M sucrose (1:80 w/v) using a motor driven teflon pestle (12 strokes, 800 rpm) and centrifuged at 1000 g for 12 minutes. […] Membrane bound radioactivity was recovered by filtration under vacuum through Whatman GF/C filters, pre-soaked for 1 h in 0.5% polyethylenimine,using a Brandel cell harvester. […]
Where a name gives a salt, the structure may show the parent alone.
Measured parameter: inhibition at 1 µM (%)
Hi! Could you send only the number? It should be in %, unit omitted.

Known results for compounds:
{"Compound": "CCOc1ccc(N=c2scc(C3(c4ccc(Cl)c(Cl)c4)CCC3)n2-c2ccc(OCC)cc2)cc1 [Example 32, hydrobromide]", "Meas value": 69}
{"Compound": "CCCCN=c1scc(C2(c3ccc(Br)cc3)CCC2)n1CCCC [Example 57, hydrobromide]", "Meas value": 94}
{"Compound": "Cc1ccccc1N=c1scc(C2(c3ccc(Cl)c(Cl)c3)CCC2)n1-c1ccccc1C [Example 29, hydrobromide]", "Meas value": 74}
{"Compound": "CC(C)N=c1scc(C2(c3ccc(Cl)c(Cl)c3)CCC2)n1C(C)C [Example 17, hydrobromide]", "Meas value": 112}
{"Compound": "C1=C(C2(c3ccc4ccccc4c3)CCC2)N2CCCN=C2S1 [Example 34, hydrobromide]", "Meas value": 109}
{"Compound": "COc1ccc(CCN=c2scc(C3(c4ccc5ccccc5c4)CCC3)n2CCc2ccc(OC)c(OC)c2)cc1OC [Example 55, hydrobromide]", "Meas value": 91}
{"Compound": "CC(C)CN=c1scc(C2(c3ccc(Cl)c(Cl)c3)CCC2)n1CC(C)C [Example 19, hydrobromide]", "Meas value": 107}
{"Compound": "Brc1ccc(C2(C3=CSC4=NCCN34)CCC2)cc1 [Example 70, hydrobromide]", "Meas value": 80}

QUERY: I'm curious: which inhibition at 1 µM was measured for CCN=c1scc(C2(c3ccc(Cl)c(Cl)c3)CCC2)n1CC [Example 15, hydrobromide] tested on dopamine (DA) reuptake sites (Rattus norvegicus)?
RESULT: 115

QUERY: Also need COc1ccc(CCN=c2scc(C3(c4ccc(Br)cc4)CCC3)n2CCc2ccc(OC)c(OC)c2)cc1OC [Example 66, hydrobromide] , thanks.
RESULT: 58

QUERY: Please give the result for Clc1ccc(C2(C3=C(c4ccccc4)SC4=NCCN43)CCC2)cc1Cl [Example 9, hydrobromide] too.
RESULT: 60

QUERY: // repeat for C=CCN=c1scc(C2(c3ccc4ccccc4c3)CCC2)n1CC=C [Example 42, hydrobromide] and report
RESULT: 113

QUERY: Query Clc1ccc(C2(c3csc(=NCCc4ccccc4)n3CCc3ccccc3)CCC2)cc1Cl [Example 24, hydrobromide] next
RESULT: 90

QUERY: Queued: CCN=c1scc(C2(c3ccc4ccccc4c3)CCC2)n1CC [Example 37, hydrobromide]
RESULT: 110

QUERY: Would you kindly repeat that for CCCCN=c1scc(C2(c3ccccc3)CCCCC2)n1CCCC [Example 61, hydrobromide] ?
RESULT: 68

QUERY: What do you have for CCCCN=c1scc(C2(c3ccc(SC)cc3)CCC2)n1CCCC [Example 58, hydrobromide] ?
RESULT: 92

QUERY: Okay, and CCOc1ccc(N=c2scc(C3(c4ccc5ccccc5c4)CCC3)n2-c2ccc(OCC)cc2)cc1 [Example 54, hydrobromide] ?
RESULT: 69

QUERY: Continue with Clc1ccc(C2(c3csc(=NCc4ccccc4)n3Cc3ccccc3)CCC2)cc1Cl [Example 22, hydrobromide]
RESULT: 79

====

Target: dopamine (DA) reuptake sites (Rattus norvegicus)
Construct: Striatal tissue from the brains of male Charles River rats weighing 150-250 g; from tissue; host or cells: rat brain striatum (crude synaptosomes in A1, washed membranes in A4)
Test: displacement of [3H]GBR 12935 from dopamine reuptake sites, striatal membranes
Assay type: binding
Settings: 10^-6 M test compound, [3H]GBR 12935 1 nM, one test only, read-out: DA uptake (% displacement of specific binding of tritiated ligand)
Structures can show the parent of a compound that is named as a salt.
A collection of compounds and their measured inhibition at 1 µM
Entry format: amount then unit.

# example entries with known answers
{"Compound": "CCCCN=c1scc(C(C)(C)c2ccc(Cl)c(Cl)c2)n1CCCC [Example 63, hydrobromide]", "Target or test system": "dopamine (DA) reuptake sites (Rattus norvegicus)", "inhibition at 1 µM": "107%"}
{"Compound": "CCCCN=c1scc(C2(c3ccc(Oc4ccccc4)cc3)CCC2)n1CCCC [Example 59, hydrobromide]", "Target or test system": "dopamine (DA) reuptake sites (Rattus norvegicus)", "inhibition at 1 µM": "73%"}
{"Compound": "CC(C)(C1=CSC2=NCCN12)c1ccc(Cl)cc1 [Example 73, hydrobromide]", "Target or test system": "dopamine (DA) reuptake sites (Rattus norvegicus)", "inhibition at 1 µM": "59%"}
{"Compound": "COc1ccc(CCN=c2scc(C3(c4ccccc4)CCCCC3)n2CCc2ccc(OC)c(OC)c2)cc1OC [Example 68, hydrobromide]", "Target or test system": "dopamine (DA) reuptake sites (Rattus norvegicus)", "inhibition at 1 µM": "65%"}
{"Compound": "COc1ccc(CCN=c2scc(C3(c4ccc(Cl)cc4)CCC3)n2CCc2ccc(OC)c(OC)c2)cc1OC [Example 65, hydrobromide]", "Target or test system": "dopamine (DA) reuptake sites (Rattus norvegicus)", "inhibition at 1 µM": "54%"}

QUERY: # query: inhibition at 1 µM | item Clc1ccc(C2(C3=CSC4=NCCN34)CCCC2)cc1Cl [Example 6, hydrobromide] | system: dopamine (DA) reuptake sites (Rattus norvegicus)
RESULT: 112%

QUERY: And the next one, c1ccc(CCN=c2scc(C3(c4ccc5ccccc5c4)CCC3)n2CCc2ccccc2)cc1 [Example 46, hydrobromide] ?
RESULT: 98%

====

The molecules listed here are annotated with their inhibition at 1 µM.
Target: 5-hydroxytryptamine (5-HT) reuptake sites (Rattus norvegicus)
Construct: Frontal cortical tissue from the brains of male Sprague-Dawley rats; from tissue; host or cells: rat brain frontal cortex (crude synaptosomes in A2, washed membranes in A5)
Test: displacement of [3H]paroxetine from 5-HT reuptake sites, frontal cortical membranes
Format: binding
Details: 10^-6 M test compound, [3H]paroxetine 30 pM, one test only, read-out: 5-HT uptake (% displacement of specific binding of tritiated ligand)
Structures can show the parent of a compound that is named as a salt.
Supply the numeric figure in %, leaving out any unit text.

{"Molecule": "Clc1ccc(C2=C(C3(c4ccc(Cl)c(Cl)c4)CCC3)N3CCN=C3S2)cc1 [Example 10, hydrobromide]", "inhibition at 1 µM (%)": 57}

QUERY: May I ask what inhibition at 1 µM has been recorded for CCN=c1scc(C2(c3ccc4ccccc4c3)CCC2)n1CC [Example 37, hydrobromide] ?
RESULT: 101

QUERY: Field entry: c1ccc(CCN=c2scc(C3(c4ccc5ccccc5c4)CCC3)n2CCc2ccccc2)cc1 [Example 46, hydrobromide]
RESULT: 51

====

Biological target: 5-hydroxytryptamine (5-HT) reuptake sites (Rattus norvegicus, UniProt P31652)
Construct: Frontal cortical tissue from the brains of male Sprague-Dawley rats; from tissue; host or cells: rat brain frontal cortex (crude synaptosomes in A2, washed membranes in A5)
Sequence (P31652 whole entry): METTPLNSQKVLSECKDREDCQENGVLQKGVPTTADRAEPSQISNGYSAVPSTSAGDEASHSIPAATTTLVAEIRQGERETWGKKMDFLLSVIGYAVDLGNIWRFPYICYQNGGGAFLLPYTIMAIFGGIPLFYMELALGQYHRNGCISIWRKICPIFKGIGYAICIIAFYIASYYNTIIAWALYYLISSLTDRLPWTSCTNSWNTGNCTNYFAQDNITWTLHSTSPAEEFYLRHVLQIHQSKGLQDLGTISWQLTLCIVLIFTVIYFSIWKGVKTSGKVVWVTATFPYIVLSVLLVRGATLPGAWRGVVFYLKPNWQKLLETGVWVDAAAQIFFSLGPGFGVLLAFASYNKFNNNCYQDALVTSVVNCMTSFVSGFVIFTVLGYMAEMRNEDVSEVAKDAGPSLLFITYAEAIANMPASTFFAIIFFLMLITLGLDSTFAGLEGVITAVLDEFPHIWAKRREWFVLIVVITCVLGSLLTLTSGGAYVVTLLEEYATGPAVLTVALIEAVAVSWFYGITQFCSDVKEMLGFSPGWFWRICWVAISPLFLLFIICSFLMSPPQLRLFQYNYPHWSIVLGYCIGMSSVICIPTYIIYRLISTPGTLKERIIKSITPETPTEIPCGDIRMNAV
Assay: displacement of [3H]paroxetine from 5-HT reuptake sites, frontal cortical membranes
Type: binding
Conditions: 10^-6 M test compound, [3H]paroxetine 30 pM, one test only, read-out: 5-HT uptake (% displacement of specific binding of tritiated ligand)
Where a name gives a salt, the structure may show the parent alone.
Measured parameter: inhibition at 1 µM (%)
State just the number; it will be interpreted in %.

Please review the entries below; each comes with its answer.
{"Molecule": "CCCCN=c1scc(C2(c3ccc(Cl)c(Cl)c3)CCC2)n1CCCC [Example 18, hydrobromide]", "inhibition at 1 µM (%)": 95}
{"Molecule": "CC(C)CN=c1scc(C2(c3ccc4ccccc4c3)CCC2)n1CC(C)C [Example 41]", "inhibition at 1 µM (%)": 98}
{"Molecule": "CN=c1scc(C2(c3ccc4ccccc4c3)CCC2)n1C [Example 36, hydrobromide]", "inhibition at 1 µM (%)": 101}

QUERY: Please look up its inhibition at 1 µM: Cc1ccccc1N=c1scc(C2(c3ccc4ccccc4c3)CCC2)n1-c1ccccc1C [Example 51, hydrobromide]
RESULT: 54

QUERY: Same for Clc1ccc(C2(C3=C(Cc4ccccc4)SC4=NCCN43)CCC2)cc1 [Example 7, hydrobromide]
RESULT: 85

QUERY: Queued: CSc1ccc(C2(C3=CSC4=NCCN34)CCC2)cc1 [Example 76, hydrobromide]
RESULT: 81

QUERY: Likewise for CCCN=c1scc(C2(c3ccc(Cl)c(Cl)c3)CCC2)n1CCC [Example 16, hydrobromide] ?
RESULT: 102
